FYI, the data here is from patent US9028806B2.

- protocol details: Exploratory Pk on rats, oral route (bioavailability)
- details: rat, in vivo, po, 2 mg/kg
measure: Tmax (min)
Output spec: scalar in min, unitless text.

Record request: Tmax value, item "CC[C@]12C=CCN3CC[C@@]4(c5cc([C@@]6(C(=O)OC)C[C@@H]7C[C@@H](C(C)(F)F)CN(Cc8c6[nH]c6ccccc86)C7)c(OC)cc5N(C)[C@H]4[C@@](O)(C(=O)OC)[C@@H]1OC(C)=O)[C@@H]32"
15

---

- protocol details: Exploratory Pk on rats, oral route (bioavailability)
- details: rat, in vivo, po, 2 mg/kg
measure: AUC(0-t) (ng·h/mL)
Output spec: scalar in ng·h/mL, unitless text.

Record request: AUC(0-t) value, item "CC[C@]12C=CCN3CC[C@@]4(c5cc([C@@]6(C(=O)OC)C[C@@H]7C[C@@H](C(C)(F)F)CN(Cc8c6[nH]c6ccccc86)C7)c(OC)cc5N(C)[C@H]4[C@@](O)(C(=O)OC)[C@@H]1OC(C)=O)[C@@H]32"
200
